Data origin, for the record: the supplement of paper PMC11451515

# Test system: SEM cells
# ASSAY NAME: cell viability relative to DMSO control; higher = less cytotoxic
# EXPERIMENTAL CONDITIONS: HPLM + 10% dialyzed FBS; 48 h; 46.1 µM
Sorting guide: entries reporting cell viability beneath 90% go in the true pile, the rest go in the false pile.

| COMPOUND | DISCRETE LABEL |
| --- | --- |
| NC[C@H]1CC[C@H](C(=O)O)CC1 | false |
| CNC(=O)c1ccc(-c2cnc3ncc(Cc4ccc5ncccc5c4)n3n2)cc1F | false |
| CC\1=C(C(\N=C(/N1)C2=CC(=NC=C2)Cl)C3=C(F)C=C(Cl)C=C3)/C(=O)NC4=C(F)C=C5[NH]N=CC5=C4 (stereo not given) | true |
| COc1cccc2cc(-c3nc(C4CCC(C(=O)O)CC4)n4ncnc(N)c34)[nH]c12 (stereo not given) | true |
